Target: recombinant human OX40 (Acro Biosystems, cat. no. OXO-H5224) (human) (UniProt P43489)
Sequence (P43489 29-216 limits assumed): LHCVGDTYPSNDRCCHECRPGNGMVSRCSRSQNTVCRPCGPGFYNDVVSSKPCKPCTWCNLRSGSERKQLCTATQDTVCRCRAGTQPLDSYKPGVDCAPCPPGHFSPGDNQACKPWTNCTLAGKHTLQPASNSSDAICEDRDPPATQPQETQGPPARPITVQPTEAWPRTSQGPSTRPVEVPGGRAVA
Test: BLI, Ab on AHC sensor, OX40 analyte
Parameter: pKd
Entry type: numeric. Quantity: pKd, the -log10 of concentration in molar units.

(Q) Recorded pKd for IgG1-CD134-INCAGN1949 (antibody) , please?
(A) 6.80

----------
Target: recombinant cynomolgus monkey OX40 (Acro Biosystems, cat. no. OXO-C5220) (cynomolgus monkey)
Sequence (P43489 other isoform, or with tags, fused parts or gaps limits assumed): as the sequence (P43489 29-216 limits assumed) above, with H16Q, S29N, S50A, P55A, L70P, A145P, I159T, G173R, G183R, R185P counted along it
Experiment: BLI, Ab on AHC sensor, OX40 analyte; * binding observed, less reliable fit
Parameter: pKd
Entry type: numeric. Quantity: pKd, the -log10 of concentration in molar units.

(Q) Recorded pKd for IgG1-CD134-INCAGN1949 (antibody) , please?
(A) 6.64
